MEASUREMENT_NOTES: log P by HPLC on reversed-phase C18 columns (OECD Guideline 117);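 on logP[b]: method b is the neutral LC-MS method at pH 7.8 with ammonium hydrogencarbonate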
Type: physicochemical
PARTICULARS: method [b]
MEASURED_PARAMETER: logP[b]
Write the value as a bare number.

Cc1nc(Sc2ncc(C(=O)N(C)c3cccnc3)n2C)oc1C [I-A-142] :: 1.47

Measured logP[b] of CN(C(=O)c1cnc(S(=O)(=O)c2ncccn2)n1C)c1cccnc1 [I-A-99] : 0.87

Measured logP[b] of CN(C(=O)c1cnc(Sc2ccc(Cl)cc2)n1C)c1cccnc1 [I-A-57] : 2.14

Measured logP[b] of CCN(C(=O)c1cnc(Sc2ncccn2)n1C)c1cccnc1 [I-A-98] : 1.22

---

MEASUREMENT_NOTES: log P by HPLC on reversed-phase C18 columns (OECD Guideline 117)
Format: physicochemical
PARTICULARS: method [a]
Protocol: The log P values were determined in accordance with OECD Guideline 117 (EC Directive 92/69/EEC) by HPLC (high-performance liquid chromatography) using reversed-phase (RP) columns (C18), by the following methods: [a] The LC-MS determination in the acidic range was carried out at pH 2.7 with 0.1% aqueous formic acid and acetonitrile (contains 0.1% formic acid) as mobile phases; linear gradient from 10% acetonitrile to 95% acetonitrile. [b] […]
MEASURED_PARAMETER: logP[a]
Write the value as a bare number.

COC(=O)c1cnc(Sc2ncc(C(=O)N(C)c3cccnc3)n2C)n1C [I-A-143] :: 1.12

Measured logP[a] of CN(C(=O)c1cnc(SCCC(F)(F)F)n1C)c1cccnc1 [I-A-47] : 1.65

Measured logP[a] of CN(C(=O)c1cnc(Sc2cccc(Cl)c2)n1C)c1cccnc1 [I-A-66] : 1.97

Measured logP[a] of CN(C(=O)c1cnc(Sc2cccc([N+](=O)[O-])c2)n1C)c1cccnc1 [I-A-68] : 1.71

Measured logP[a] of CC(C)CCSc1ncc(C(=O)N(C)c2cccnc2)n1C [I-A-53] : 2.68

---

MEASUREMENT_NOTES: log P by HPLC on reversed-phase C18 columns (OECD Guideline 117);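 on logP[b]: method b is the neutral LC-MS method at pH 7.8 with ammonium hydrogencarbonate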
Type: physicochemical
PARTICULARS: method [b]
Decision: logP[b] >= 2 yields y, all other cases yield n.

CN(C(=O)c1cnc(SCCSCC(F)(F)F)n1C)c1cccnc1 [I-A-50] :: y
CN(C(=O)c1cnc(Sc2ccccc2[N+](=O)[O-])n1C)c1cccnc1 [I-A-16] :: n
C#CCSc1ncc(C(=O)N(C)c2cccnc2)n1C [I-A-30] :: n
CCSc1ncc(C(=O)N(C)c2cccnc2)n1C [I-A-36] :: n
CN(C)C(=O)CSc1ncc(C(=O)N(C)c2cccnc2)n1C [I-A-34] :: n
CN(C(=O)c1cnc([S+]([O-])c2ccc(Cl)c(C(F)(F)F)c2)n1C)c1cccnc1 (stereo not drawn) [I-A-79] :: y
CN(C(=O)c1cnc(Sc2ccc(F)cn2)n1C)c1cccnc1 [I-A-94] :: n
CN(C(=O)c1cnc([S+]([O-])c2ccccc2)n1C)c1cccnc1 (stereo not drawn) [I-A-87] :: n

Moving on to another compound below.
Tell me whether logP[b] is at least 2 here: CN(C(=O)c1cnc(Sc2ccccc2)n1C)c1cccnc1 [I-A-11]
n

---

MEASUREMENT_NOTES: log P by HPLC on reversed-phase C18 columns (OECD Guideline 117)
Format: physicochemical
PARTICULARS: method [a]
MEASURED_PARAMETER: logP[a]
Write the value as a bare number.

Record excerpt, results attached:
CON=C(C)CSc1ncc(C(=O)N(C)c2cccnc2)n1C :: 1.13
CN(C(=O)c1cnc(SCc2ccc(Cl)c(Cl)c2)n1C)c1cccnc1 :: 2.51
CCN(C(=O)c1cnc(Sc2ncccn2)n1C)c1cccnc1 :: 1.04
CN(C(=O)c1cnc([S+]([O-])c2ccccc2)n1C)c1cccnc1 (centres unmarked) :: 1.04
CN(C(=O)c1cnc(Sc2ccc(F)cn2)n1C)c1cccnc1 :: 1.18
CN(C(=O)c1cnc([S+]([O-])c2ccc(C(C)(C)C)cc2)n1C)c1cccnc1 (centres unmarked) :: 2.14
CN(C(=O)c1cnc(Sc2ncc(-c3ccccc3)n2C)n1C)c1cccnc1 :: 1.39
CN(C(=O)c1cnc(Sc2ccccn2)n1C)c1cccnc1 :: 1.01
COc1cc(OC)nc(Sc2ncc(C(=O)N(C)c3cccnc3)n2C)n1 :: 1.61
CN(C(=O)c1cnc(Sc2nnc(C(F)F)n2C)n1C)c1cccnc1 :: 0.87

Measured logP[a] of CN(C(=O)c1cnc(Sc2nnc(-c3ccccc3)s2)n1C)c1cccnc1 : 1.92

Measured logP[a] of CN(C(=O)c1cnc(Sc2ccccc2S(=O)(=O)N(C)C)n1C)c1cccnc1 : 1.56

Measured logP[a] of CN(C(=O)c1cnc([S+]([O-])c2cccc(C(F)(F)F)c2)n1C)c1ccc[n+]([O-])c1 (centres unmarked) : 1.41

Measured logP[a] of CN(C(=O)c1cnc(SCc2ccccc2)n1C)c1cccnc1 : 1.68

---

MEASUREMENT_NOTES: log P by HPLC on reversed-phase C18 columns (OECD Guideline 117)
Assay type: physicochemical
PARTICULARS: neutral range, pH 7.8, 0.001 molar aqueous ammonium hydrogencarbonate / acetonitrile
MEASURED_PARAMETER: log P[n]
Write the value as a bare number.

Record excerpt, results attached:
CN(C(=O)c1cn(C)c(Br)n1)c1cccnc1 :: 0.76
COC(=O)c1cnc(SCC2CC2)n1C :: 2.26
Cc1cc(C)nc(Sc2ncc(C(=O)N(C)c3cccnc3)n2C)n1 :: 1.46
CN(C(=O)c1cncn1C)c1cccnc1 :: 0.42
Cn1c(C(=O)O)cnc1SCC1CC1 :: −0.18
COC(=O)c1cnc(Sc2nc(C)cc(C)n2)n1C :: 1.80

With those in mind, consider the next compound.
Measured log P[n] of CN(C(=O)c1cnc(Br)n1C)c1cccnc1 : 0.93

---

MEASUREMENT_NOTES: log P by HPLC on reversed-phase C18 columns (OECD Guideline 117)
Assay type: physicochemical
PARTICULARS: reversed-phase C18 HPLC column, pH 7.8, neutral range, pH 7.8, 0.001 molar aqueous ammonium hydrogencarbonate / acetonitrile; read-out: log P[n]
Experimental: The log P values were determined in accordance with OECD Guideline 117 (EC Directive 92/69/EEC) by HPLC (high-performance liquid chromatography) using reversed-phase (RP) columns (C18), by the following methods: [a] The LC-MS determination in the acidic range was carried out at pH 2.7 with 0.1% aqueous formic acid and acetonitrile (contains 0.1% formic acid) as mobile phases; linear gradient from 10% acetonitrile to 95% acetonitrile. [b] […]
MEASURED_PARAMETER: chromatographic logP
Write the value as a bare number.

Record excerpt, results attached:
CN(C(=O)c1cnc(SCC2CC2)n1C)c1cccnc1 [I-A-2] :: 1.81
CN(C(=O)c1cncn1Cc1ccccc1)c1cccnc1 :: 1.4
CN(C(=O)c1cn(C)c(Sc2ncccn2)n1)c1cccnc1 [I-B-1] :: 0.83
CN(C(=O)c1cnc(Sc2ncccn2)n1C)c1cccnc1 [I-A-3] :: 0.98

With those in mind, consider the next molecule.
Measured chromatographic logP of Cc1cc(C)nc(Sc2ncc(C(=O)N(C)c3cccnc3)n2C)n1 [I-A-1] : 1.41

---

MEASUREMENT_NOTES: log P by HPLC on reversed-phase C18 columns (OECD Guideline 117);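 on logP[b]: method b is the neutral LC-MS method at pH 7.8 with ammonium hydrogencarbonate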
Type: physicochemical
PARTICULARS: method [b]
MEASURED_PARAMETER: logP[b]
Write the value as a bare number.

Measured logP[b] of CN(C(=O)c1cnc(Sc2nnc(C(F)F)n2C)n1C)c1cccnc1 : 1.00

Measured logP[b] of CN(C(=O)c1cnc(SCCC(F)(F)F)n1C)c1cccnc1 : 1.84

Measured logP[b] of COc1cc(OC)nc(CSc2ncc(C(=O)N(C)c3cccnc3)n2C)n1 : 1.68

Measured logP[b] of CCOCCSc1ncc(C(=O)N(C)c2cccnc2)n1C : 1.41

Measured logP[b] of CN(C(=O)c1cnc(SCC(=O)C(C)(C)C)n1C)c1cccnc1 : 1.78

Measured logP[b] of CN(C(=O)c1cnc(Sc2cccc(Cl)c2)n1C)c1cccnc1 : 2.11

Measured logP[b] of CN(C(=O)c1cnc(Sc2ccccn2)n1C)c1cccnc1 : 1.18

Measured logP[b] of Cc1nnc(Sc2ncc(C(=O)N(C)c3cccnc3)n2C)o1 : 0.89

Measured logP[b] of CN(C(=O)c1cnc(S(=O)(=O)c2ccc(F)cc2)n1C)c1cccnc1 : 1.62

Measured logP[b] of CN(C)C(=O)c1ccccc1S(=O)(=O)c1ncc(C(=O)N(C)c2cccnc2)n1C : 1.29

---

Tested on: green peach aphid (Myzus persicae)
MEASUREMENT_NOTES: Contrasting example: Myzus persicae spray test (MYZUPE)
Assay type: in vivo
PARTICULARS: MYZUPE, 100 g ai/ha, 5 dat
Examples of compounds with documented % efficacy follow.
Give just the number in %; leave the unit off.

Record excerpt, results attached:
CN(C(=O)c1cnc(SC2CCSCC2)n1C)c1cccnc1 :: 100
CC(C)CCSc1ncc(C(=O)N(C)c2cccnc2)n1C :: 100
CN(C(=O)c1cnc(Sc2nnc(-c3ccccc3)s2)n1C)c1cccnc1 :: 70
CN(C(=O)c1cnc([S+]([O-])c2cccc(C(F)(F)F)c2)n1C)c1cccnc1 (stereo not shown) :: 90
CN(C(=O)c1cnc(SCCCF)n1C)c1cccnc1 :: 90
CN(C(=O)c1cnc(SCC(F)(F)C(F)F)n1C)c1cccnc1 :: 90

The recorded % efficacy with green peach aphid (Myzus persicae) for CCn1c(C(=O)N(C)c2cccnc2)cnc1Sc1ncccn1 was 90

The recorded % efficacy with green peach aphid (Myzus persicae) for CN(C(=O)c1cnc([S+]([O-])Cc2ccccc2)n1C)c1cccnc1 (stereo not shown) was 90

The recorded % efficacy with green peach aphid (Myzus persicae) for CN(C(=O)c1cnc(SCC(F)(F)C(F)(F)Cl)n1C)c1cccnc1 was 90

The recorded % efficacy with green peach aphid (Myzus persicae) for CN(C(=O)c1cnc(SC2CCOCC2)n1C)c1cccnc1 was 100
